Source listed as paper PMC9090415.

target: P. falciparum apicoplast DNA polymerase (Pf-apPOL) (Plasmodium falciparum); experiment: Fluorescence-based high-throughput DNA polymerase assay (molecular beacon), primary screen and dose-response; type: biochemical; settings: DRC-1; 90'; conc 2.5
Below is a list of entries, each paired with its recorded % inhibition Apol 90' value.
Your answer should be a plain number; it is taken to be in %.

Consider the reported % inhibition Apol 90' for these compounds:
compound=Cc1ccc(CNC(=O)c2cnn3c(O)cc(CSc4ccc(Cl)cc4)nc23)cc1 measured_target="P. falciparum apicoplast DNA polymerase (Pf-apPOL) (Plasmodium falciparum)" reported_endpoint="% inhibition Apol 90'" recorded_result=16.0319
compound=O=C1NN(c2ccc(Cl)c(Cl)c2)C(=O)/C1=C/c1ccc(-c2ccc3c(c2)C(=O)OC3)o1 measured_target="P. falciparum apicoplast DNA polymerase (Pf-apPOL) (Plasmodium falciparum)" reported_endpoint="% inhibition Apol 90'" recorded_result=24.0232
compound="Cc1ccccc1NC(=O)Cn1ccc2c(=O)[nH]ccc21 [Molecule 50, O=C(Cn1ccc2c1cc[nH]c2=O)Nc1ccc(cc1)C]" measured_target="P. falciparum apicoplast DNA polymerase (Pf-apPOL) (Plasmodium falciparum)" reported_endpoint="% inhibition Apol 90'" recorded_result=0
compound=CC(C)CCNC(=O)c1cnn2c(O)cc(CSc3ccc(Cl)cc3)nc12 measured_target="P. falciparum apicoplast DNA polymerase (Pf-apPOL) (Plasmodium falciparum)" reported_endpoint="% inhibition Apol 90'" recorded_result=-5.869
compound=Cc1cccc(C2=N/C(=C\c3ccc([N+](=O)[O-])o3)C(=O)O2)c1 measured_target="P. falciparum apicoplast DNA polymerase (Pf-apPOL) (Plasmodium falciparum)" reported_endpoint="% inhibition Apol 90'" recorded_result=16.0415

Indicate the recorded % inhibition Apol 90' value for this compound: C=CC1=C(C)c2cc3[nH]c(cc4nc(cc5[nH]c(cc1n2)c(C)c5CCC(=O)O)C(CCC(=O)O)=C4C)c(C)c3C=C 48.9007

Name the recorded % inhibition Apol 90' of the item COc1ccccc1C1CC(=O)Oc2cc3c(cc21)OCO3 (centres unmarked) in your answer. 2.531

Quote % inhibition Apol 90' reported for N#CC(C#N)=C1SCN(c2cccc(Cl)c2)CS1 please. 12.5059

* * *

molecular target: P. falciparum apicoplast DNA polymerase (Pf-apPOL) (Plasmodium falciparum); experiment: Fluorescence-based high-throughput DNA polymerase assay (molecular beacon), primary screen and dose-response; assay type: biochemical; details: DRC-1; 180'; concentration 40
reported_endpoint: % inhibition apPOL 180' (%)
Report the figure in % without appending any unit label.

// worked examples, % inhibition apPOL 180' included
molecule=O=C(NNC(=O)c1ccc(Cl)cc1)C(=O)NNC(=O)c1ccc(Cl)cc1 reported_endpoint="% inhibition apPOL 180'" recorded_result=53.135
molecule=CS(=O)(=O)c1cccc(C(=O)Nc2nnc(-c3ccno3)o2)c1 reported_endpoint="% inhibition apPOL 180'" recorded_result=13.3473
molecule="CN(C)C1C(c2ccccc2)=C(c2ccccc2)SC(c2ccccc2)C1[N+](=O)[O-] (centres unmarked)" reported_endpoint="% inhibition apPOL 180'" recorded_result=60.315
molecule="O=C(Cn1ccc2c(=O)[nH]ccc21)Nc1ccc(Cl)cc1 [Molecule 36, O=C(Cn1ccc2c1cc[nH]c2=O)Nc1ccc(cc1)Cl]" reported_endpoint="% inhibition apPOL 180'" recorded_result=73.0225
molecule=COc1cccc(Oc2c(C(F)(F)F)oc3cc(OC(=O)N(C)C)ccc3c2=O)c1 reported_endpoint="% inhibition apPOL 180'" recorded_result=65.9617
molecule=N#Cc1c(C2CCCCC2)nc(Sc2ccc(C(F)(F)F)cc2[N+](=O)[O-])[nH]c1=O reported_endpoint="% inhibition apPOL 180'" recorded_result=94.1749
molecule=O=c1cc(CN2CCCCC2)c2cc3c(cc2o1)OCO3 reported_endpoint="% inhibition apPOL 180'" recorded_result=81.7381

Please find the next molecule below.
Output measured % inhibition apPOL 180' for this item: COc1cc(Cl)c(C)cc1NC(=O)Cn1ccc2c(=O)[nH]ccc21 76.46

* * *

Target: P. falciparum apicoplast DNA polymerase (Pf-apPOL) (Plasmodium falciparum)
Experiment: Fluorescence-based high-throughput DNA polymerase assay (molecular beacon), primary screen and dose-response
Assay type: biochemical
Conditions: DRC-2; 5'; concentration 80
Excerpt: The HT assay employs a molecular beacon, a stem-loop DNA template with a Cy3 dye and the Black Hole Quencher on the 3′ and 5′ ends of the DNA, respectively. Pf-apPOL concentration is based on a calculated absorptivity of ε280 = 56750 M^−1 cm^−1. […] To identify apPOL inhibitors we utilised our previously developed high-throughput DNA polymerase assay. […] The assay accurately recapitulates the kinetic behaviour of apPOL, as measured through more conventional low-throughput gel-based assays. […]
yes means recorded % inhibition Apo pol 5' is 40% or above; no means it is below 40%.

Would you please look over these solved cases?
molecule=N#Cc1c(C2CCCCC2)nc(Sc2ccc(C(F)(F)F)cc2[N+](=O)[O-])[nH]c1=O measured_target="P. falciparum apicoplast DNA polymerase (Pf-apPOL) (Plasmodium falciparum)" label_value=yes
molecule=O=C1CCCC2=C1C(c1ccccn1)C1=C(CCCC1=O)O2 measured_target="P. falciparum apicoplast DNA polymerase (Pf-apPOL) (Plasmodium falciparum)" label_value=yes
molecule=O=[N+]([O-])c1ccc(/C=C/c2ccc3ccccc3n2)o1 measured_target="P. falciparum apicoplast DNA polymerase (Pf-apPOL) (Plasmodium falciparum)" label_value=no
molecule=O=C(NCC1CCN(C2CCCC2)CC1)C(=O)NC1CCCC1 measured_target="P. falciparum apicoplast DNA polymerase (Pf-apPOL) (Plasmodium falciparum)" label_value=yes
molecule="Cl.NC(CO)C(=O)NNCc1ccc(O)c(O)c1O (centres unmarked)" measured_target="P. falciparum apicoplast DNA polymerase (Pf-apPOL) (Plasmodium falciparum)" label_value=yes
molecule="O=C(Cn1ccc2c(=O)[nH]ccc21)Nc1ccc(Cl)cc1 [Molecule 36, O=C(Cn1ccc2c1cc[nH]c2=O)Nc1ccc(cc1)Cl]" measured_target="P. falciparum apicoplast DNA polymerase (Pf-apPOL) (Plasmodium falciparum)" label_value=no

Next:
# check: % inhibition Apo pol 5' of COc1ccc(S(=O)(=O)/N=C2\NC(=O)/C(=C3\C(=O)Nc4ccc([N+](=O)[O-])cc43)S2)cc1 is greater than or equal to 40% yes

* * *

biological target: P. falciparum apicoplast DNA polymerase (Pf-apPOL) (Plasmodium falciparum, UniProt Q8ILY1); test: Fluorescence-based high-throughput DNA polymerase assay (molecular beacon), primary screen and dose-response; type: biochemical; details: DRC-2; 5'; concentration 5
Sequence (Q8ILY1 entry or part of it): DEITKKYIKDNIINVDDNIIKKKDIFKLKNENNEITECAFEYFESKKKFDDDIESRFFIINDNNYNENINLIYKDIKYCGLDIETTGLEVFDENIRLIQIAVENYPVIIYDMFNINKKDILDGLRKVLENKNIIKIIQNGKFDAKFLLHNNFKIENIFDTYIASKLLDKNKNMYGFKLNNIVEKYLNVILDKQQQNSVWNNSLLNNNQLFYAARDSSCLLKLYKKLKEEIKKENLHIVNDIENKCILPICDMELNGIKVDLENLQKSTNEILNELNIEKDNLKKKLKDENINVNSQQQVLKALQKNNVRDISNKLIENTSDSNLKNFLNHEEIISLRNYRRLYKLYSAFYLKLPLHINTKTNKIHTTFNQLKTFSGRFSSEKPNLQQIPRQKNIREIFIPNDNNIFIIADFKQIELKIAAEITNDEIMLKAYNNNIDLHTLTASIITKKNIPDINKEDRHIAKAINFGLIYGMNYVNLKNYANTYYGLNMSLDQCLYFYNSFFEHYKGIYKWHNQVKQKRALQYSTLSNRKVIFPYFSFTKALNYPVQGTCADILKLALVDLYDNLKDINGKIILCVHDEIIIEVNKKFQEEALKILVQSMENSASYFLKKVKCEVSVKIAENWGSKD
Measured % inhibition Apo pol 5' accompanies every entry in the list below.
Supply the numeric figure in %, leaving out any unit text.

Below are worked cases with known answers.
molecule=Cc1ccc(NC(=O)C2CCN(C(=O)c3cc4ccsc4[nH]3)CC2)c(Br)c1 reported_endpoint="% inhibition Apo pol 5'" recorded_result=22
molecule="O=C(NC(C(Cl)Cl)S(=O)(=O)c1ccccc1)c1ccccc1 (stereo not drawn)" reported_endpoint="% inhibition Apo pol 5'" recorded_result=18

With those in mind, consider the next molecule.
Consider the molecule Cn1nc(-c2nnc(-c3ccccc3F)o2)c2c1CCN(C(=O)c1ccccc1Cl)C2 tested on P. falciparum apicoplast DNA polymerase (Pf-apPOL) (Plasmodium falciparum, UniProt Q8ILY1); state its % inhibition Apo pol 5'. 20

* * *

biological target: bacteriophage T4 DNA polymerase (Enterobacteria phage T4, UniProt P04415); construct: made in house; experiment: Counter-screen against bacteriophage T4 DNA polymerase; assay type: biochemical; conditions: DRC-2; 90'; concentration 20
Sequence (P04415 whole entry): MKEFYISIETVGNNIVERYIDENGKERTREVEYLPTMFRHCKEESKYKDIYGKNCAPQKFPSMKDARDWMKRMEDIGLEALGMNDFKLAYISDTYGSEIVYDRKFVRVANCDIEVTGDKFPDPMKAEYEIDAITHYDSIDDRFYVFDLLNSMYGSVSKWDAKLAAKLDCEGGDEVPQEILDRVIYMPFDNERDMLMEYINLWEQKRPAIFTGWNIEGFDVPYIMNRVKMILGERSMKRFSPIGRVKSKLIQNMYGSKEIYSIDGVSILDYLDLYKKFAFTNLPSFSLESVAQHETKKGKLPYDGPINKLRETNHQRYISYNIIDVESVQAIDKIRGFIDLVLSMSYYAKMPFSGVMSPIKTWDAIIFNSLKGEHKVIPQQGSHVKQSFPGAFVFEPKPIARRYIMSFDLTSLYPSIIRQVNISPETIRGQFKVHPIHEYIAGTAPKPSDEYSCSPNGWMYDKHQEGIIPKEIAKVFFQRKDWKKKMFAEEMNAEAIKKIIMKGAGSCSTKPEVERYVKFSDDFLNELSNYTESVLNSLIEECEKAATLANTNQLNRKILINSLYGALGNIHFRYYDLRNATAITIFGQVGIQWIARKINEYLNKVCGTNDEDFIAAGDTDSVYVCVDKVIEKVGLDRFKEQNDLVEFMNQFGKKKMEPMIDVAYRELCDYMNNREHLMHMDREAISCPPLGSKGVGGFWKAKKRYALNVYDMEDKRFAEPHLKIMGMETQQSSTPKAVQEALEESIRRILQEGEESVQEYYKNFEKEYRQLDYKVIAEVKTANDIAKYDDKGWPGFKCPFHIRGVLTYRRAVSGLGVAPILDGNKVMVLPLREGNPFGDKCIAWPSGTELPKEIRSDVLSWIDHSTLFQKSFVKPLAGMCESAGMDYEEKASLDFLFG
reported_endpoint: % inhibition T4 90' (%)
Give a bare numeral; the unit % is implied.

compound=COc1ccc(CNC(=O)Cn2nc3c(c2NC(=O)Cc2cccs2)CSC3)cc1 unit_descriptor=% recorded_result=26
compound="O=C(NC(C(Cl)Cl)S(=O)(=O)c1ccccc1)c1ccccc1 (centres unmarked)" unit_descriptor=% recorded_result=-18
compound=O=c1[nH]c2ccc([N+](=O)[O-])cc2c(-c2ccccc2)c1Sc1nc2ccccc2o1 unit_descriptor=% recorded_result=36
compound="O=C1N=C(Nc2cccc(Cl)c2Cl)S/C1=C\\c1ccco1 [Molecule 3, O=C1N=C(S/C/1=C\\c1ccco1)Nc1cccc(c1Cl)Cl]" unit_descriptor=% recorded_result=30
compound=O=C(Nc1ccc2c(c1)Cc1cc(NC(=O)c3ccco3)ccc1-2)c1ccco1 unit_descriptor=% recorded_result=25
compound=COc1ccc(-c2n[nH]cc2Oc2ccc(Cl)cc2)c(O)c1 unit_descriptor=% recorded_result=-25
compound=CN(C)S(=O)(=O)Oc1ccc(-c2noc(-c3ccc(Oc4cc(Cl)cc(Cl)c4)o3)n2)cc1 unit_descriptor=% recorded_result=35

Look up and report % inhibition T4 90', with bacteriophage T4 DNA polymerase (Enterobacteria phage T4, UniProt P04415) as system, for CC(=O)c1cc2c(N)c(/C(N)=N/C#N)sc2nc1C -18

* * *

biological target: P. falciparum apicoplast DNA polymerase (Pf-apPOL) (Plasmodium falciparum, UniProt Q8ILY1); assay: Fluorescence-based high-throughput DNA polymerase assay (molecular beacon), primary screen and dose-response; format: biochemical; conditions: DRC-2; read at 5'; concentration 20
reported_endpoint: % inhibition Apo pol 5' 20 (%)
Quick note: give the figure in %, leave out the unit.

compound=Cn1nc(-c2nc(-c3ccccc3)no2)c2c1CCN(C(=O)Cc1cccs1)C2 unit_descriptor=% recorded_result=27

Find % inhibition Apo pol 5' 20 for N#Cc1c(O)nc(N2CCCCC2)nc1-c1ccc2c(c1)OCO2 on P. falciparum apicoplast DNA polymerase (Pf-apPOL) (Plasmodium falciparum, UniProt Q8ILY1) and write it down. 44

Give reported % inhibition Apo pol 5' 20 for Cc1cccc(-c2noc(C(=O)NNC(=O)C(Cl)(Cl)Cl)n2)c1 (P. falciparum apicoplast DNA polymerase (Pf-apPOL) (Plasmodium falciparum, UniProt Q8ILY1)) 21

Provide % inhibition Apo pol 5' 20, system P. falciparum apicoplast DNA polymerase (Pf-apPOL) (Plasmodium falciparum, UniProt Q8ILY1), entry COc1ccc(C2CC(c3ccc(Cl)cc3Cl)Nc3nc(N)nn32)cc1OC (stereo not drawn) 30

State the measured % inhibition Apo pol 5' 20 (P. falciparum apicoplast DNA polymerase (Pf-apPOL) (Plasmodium falciparum, UniProt Q8ILY1)) of Cn1nc(-c2nnc(-c3ccccc3F)o2)c2c1CCN(C(=O)c1ccccc1Cl)C2 29

Look up and report measured % inhibition Apo pol 5' 20 (P. falciparum apicoplast DNA polymerase (Pf-apPOL) (Plasmodium falciparum, UniProt Q8ILY1)) for the following compound: Cc1nc(C)c2c(n1)N(CC1CCCCC1)C(=O)CC2 27
